Provenance of the data: the supplement of paper PMC10126150

switch fluorescence ratio values for the sequences below.
System: ATP;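 note: ATP exposure 15 min at 22 °C before imaging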
assayProtocol: switch fluorescence ratio, 500 uM ATP over buffer (Cy3 cluster intensity, sum of 5 cycles each) (fold (ratio)); higher = stronger signal-on switching upon ATP binding; sequences stand for … in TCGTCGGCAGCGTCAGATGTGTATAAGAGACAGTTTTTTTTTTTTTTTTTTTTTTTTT…TC
conditionContext: aptamer strand: ATP DNA aptamer (quencher-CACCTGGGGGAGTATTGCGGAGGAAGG + anchor), 100 nM annealed; ATP concentration: 500 uM

{"sequenceRecord": "TTCGGGCGAA", "switch fluorescence ratio": 1}
{"sequenceRecord": "CATCGTCACG", "switch fluorescence ratio": 1.01}
{"sequenceRecord": "AGCAATAGGT", "switch fluorescence ratio": 1.94}
{"sequenceRecord": "ATGTTGTATT", "switch fluorescence ratio": 1.01}
{"sequenceRecord": "CGGGGGTTGC", "switch fluorescence ratio": 0.977}
{"sequenceRecord": "GAATGACAGT", "switch fluorescence ratio": 0.978}
{"sequenceRecord": "ATGGGTAGTG", "switch fluorescence ratio": 0.984}
{"sequenceRecord": "TTTTTGTATA", "switch fluorescence ratio": 0.979}
{"sequenceRecord": "ATGAAGTAAT", "switch fluorescence ratio": 1}
{"sequenceRecord": "TCGTCTTATA", "switch fluorescence ratio": 0.991}
{"sequenceRecord": "GATTACTTTG", "switch fluorescence ratio": 0.956}
{"sequenceRecord": "GGTACGAAAC", "switch fluorescence ratio": 1.68}
{"sequenceRecord": "AAACAAAAAT", "switch fluorescence ratio": 1.01}
{"sequenceRecord": "CCAGCATAAT", "switch fluorescence ratio": 1.41}
{"sequenceRecord": "TTTTTCCTTT", "switch fluorescence ratio": 1.02}
{"sequenceRecord": "ATATCGGTGT", "switch fluorescence ratio": 0.991}
{"sequenceRecord": "ATGAGACGTG", "switch fluorescence ratio": 1.04}
{"sequenceRecord": "GCTTTATCGG", "switch fluorescence ratio": 0.965}
{"sequenceRecord": "GTGGGGTCGC", "switch fluorescence ratio": 0.978}
{"sequenceRecord": "GGCATCGGTT", "switch fluorescence ratio": 0.977}

* * *

Tested on: ATP;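 note: ATP exposure 15 min at 22 °C before imaging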
assayProtocol: switch fluorescence ratio, 500 uM ATP over buffer (Cy3 cluster intensity, sum of 5 cycles each) (fold (ratio)); higher = stronger signal-on switching upon ATP binding; sequences stand for … in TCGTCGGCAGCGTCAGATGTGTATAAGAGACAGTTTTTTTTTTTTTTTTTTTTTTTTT…TC
conditionContext: aptamer strand: ATP DNA aptamer (quencher-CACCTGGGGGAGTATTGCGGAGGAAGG + anchor), 100 nM annealed; ATP concentration: 500 uM
Answer class 0 if switch fluorescence ratio is under 1, and class 1 if it is 1 or more.

{"sequenceRecord": "GACAGGTGAA", "systemName": "ATP", "labelClass": "class 1"}
{"sequenceRecord": "TAACGAACGC", "systemName": "ATP", "labelClass": "class 1"}
{"sequenceRecord": "TGGTATTTGG", "systemName": "ATP", "labelClass": "class 0"}
{"sequenceRecord": "ACCGGCACAT", "systemName": "ATP", "labelClass": "class 1"}
{"sequenceRecord": "CAGTATGTCC", "systemName": "ATP", "labelClass": "class 0"}
{"sequenceRecord": "GTTTATTGTC", "systemName": "ATP", "labelClass": "class 1"}
{"sequenceRecord": "TTCCAGGTGG", "systemName": "ATP", "labelClass": "class 1"}
{"sequenceRecord": "TTTAAACTT", "systemName": "ATP", "labelClass": "class 1"}

* * *

Tested on: ATP;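 note: ATP exposure 15 min at 22 °C before imaging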
assayProtocol: switch fluorescence ratio, 500 uM ATP over buffer (Cy3 cluster intensity, sum of 5 cycles each) (fold (ratio)); higher = stronger signal-on switching upon ATP binding; sequences stand for … in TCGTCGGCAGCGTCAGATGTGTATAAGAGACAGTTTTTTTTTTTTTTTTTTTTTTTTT…TC
conditionContext: aptamer strand: ATP DNA aptamer (quencher-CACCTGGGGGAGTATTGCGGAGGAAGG + anchor), 100 nM annealed; ATP concentration: 500 uM
The following sequences are shown together with reported switch fluorescence ratio values.

{"sequenceRecord": "CAGGTAAGCG", "switch fluorescence ratio": 0.969}
{"sequenceRecord": "GGGCTGATAG", "switch fluorescence ratio": 1.01}
{"sequenceRecord": "GGTGTTATGT", "switch fluorescence ratio": 1.01}
{"sequenceRecord": "TGTATTTTTA", "switch fluorescence ratio": 1.01}
{"sequenceRecord": "AGAGGCGTAT", "switch fluorescence ratio": 0.974}
{"sequenceRecord": "ATGGTGTTGC", "switch fluorescence ratio": 0.964}
{"sequenceRecord": "ACTCAGATTG", "switch fluorescence ratio": 1.05}
{"sequenceRecord": "TATAGTCGGG", "switch fluorescence ratio": 0.98}
{"sequenceRecord": "AATAAGAGTT", "switch fluorescence ratio": 0.995}
{"sequenceRecord": "TGACTTCGCT", "switch fluorescence ratio": 1.2}
{"sequenceRecord": "GGGAATTATA", "switch fluorescence ratio": 0.984}
{"sequenceRecord": "ATAATTATGT", "switch fluorescence ratio": 1}
{"sequenceRecord": "ATGTGCCAGT", "switch fluorescence ratio": 0.962}
{"sequenceRecord": "CCAATGGATA", "switch fluorescence ratio": 1.03}
{"sequenceRecord": "TCTGAGAGAG", "switch fluorescence ratio": 0.982}
{"sequenceRecord": "ATGGGCCCGT", "switch fluorescence ratio": 1.01}
{"sequenceRecord": "TTTATCATTG", "switch fluorescence ratio": 0.991}
{"sequenceRecord": "TCGAGGAATC", "switch fluorescence ratio": 1.08}
{"sequenceRecord": "ACCAGTGGGC", "switch fluorescence ratio": 1.04}
{"sequenceRecord": "AATGAAGTCC", "switch fluorescence ratio": 1.05}
{"sequenceRecord": "GCCGCCGGGG", "switch fluorescence ratio": 0.996}
{"sequenceRecord": "ATAAGCATGT", "switch fluorescence ratio": 1.02}
{"sequenceRecord": "ATAGGGATGG", "switch fluorescence ratio": 0.983}
{"sequenceRecord": "TTTTTCCATT", "switch fluorescence ratio": 1.01}
{"sequenceRecord": "GAGTTGGGCT", "switch fluorescence ratio": 0.979}
{"sequenceRecord": "GTTTTCGTGG", "switch fluorescence ratio": 0.995}
{"sequenceRecord": "CGGTTCGCCT", "switch fluorescence ratio": 0.998}
{"sequenceRecord": "TTATGAATGC", "switch fluorescence ratio": 0.999}
{"sequenceRecord": "CGTTATCGGA", "switch fluorescence ratio": 1}
{"sequenceRecord": "AAGTGGGGTC", "switch fluorescence ratio": 0.948}
{"sequenceRecord": "AATCAGACGG", "switch fluorescence ratio": 1.02}
{"sequenceRecord": "CGCTTTTCGT", "switch fluorescence ratio": 1}
{"sequenceRecord": "GTCGTCAAGT", "switch fluorescence ratio": 1.01}
{"sequenceRecord": "CATGAAAAGT", "switch fluorescence ratio": 0.978}
{"sequenceRecord": "ACGCTCCTGG", "switch fluorescence ratio": 1.15}
{"sequenceRecord": "AGAGGACCGA", "switch fluorescence ratio": 1.04}
{"sequenceRecord": "TTGGATTAAC", "switch fluorescence ratio": 1.01}
{"sequenceRecord": "GGCCTGGGTT", "switch fluorescence ratio": 0.967}
{"sequenceRecord": "CGGGCGCTGT", "switch fluorescence ratio": 1.06}
{"sequenceRecord": "ATGGGCATGG", "switch fluorescence ratio": 1.04}
{"sequenceRecord": "GGAGACGGTT", "switch fluorescence ratio": 1}
{"sequenceRecord": "AACTAATTCA", "switch fluorescence ratio": 0.993}
{"sequenceRecord": "CGGGCATTAG", "switch fluorescence ratio": 1.21}
{"sequenceRecord": "CAAACGAGGT", "switch fluorescence ratio": 0.994}
{"sequenceRecord": "GATTACATGC", "switch fluorescence ratio": 1.01}
{"sequenceRecord": "TCGTTGGGAC", "switch fluorescence ratio": 0.979}
{"sequenceRecord": "CGTGATTACT", "switch fluorescence ratio": 1.17}
{"sequenceRecord": "CAGAGAGGTG", "switch fluorescence ratio": 1.07}
{"sequenceRecord": "GAGAGGGGAT", "switch fluorescence ratio": 1.03}
{"sequenceRecord": "CCAAAAAAAG", "switch fluorescence ratio": 1.03}
{"sequenceRecord": "GTTGAAAGTA", "switch fluorescence ratio": 0.977}
{"sequenceRecord": "TGGATGGCGT", "switch fluorescence ratio": 1.1}
{"sequenceRecord": "TCAGGGTTAT", "switch fluorescence ratio": 1.02}
{"sequenceRecord": "GATGGAAAAA", "switch fluorescence ratio": 1.04}
{"sequenceRecord": "CTGGGTGTAT", "switch fluorescence ratio": 0.984}
{"sequenceRecord": "CTTAACCATT", "switch fluorescence ratio": 0.98}
{"sequenceRecord": "GGGTCTAGGT", "switch fluorescence ratio": 0.997}
{"sequenceRecord": "AGGCAGCTGT", "switch fluorescence ratio": 1.01}
{"sequenceRecord": "ATTGGGGCGT", "switch fluorescence ratio": 0.977}
{"sequenceRecord": "AGAGTTTGGT", "switch fluorescence ratio": 0.985}
{"sequenceRecord": "TGGCGCACGG", "switch fluorescence ratio": 0.953}
{"sequenceRecord": "TTCTTACTTT", "switch fluorescence ratio": 1.48}
{"sequenceRecord": "TTGTTTTTAG", "switch fluorescence ratio": 0.988}
{"sequenceRecord": "GTCAGCAAAT", "switch fluorescence ratio": 1.05}
{"sequenceRecord": "CATTGGGACA", "switch fluorescence ratio": 1.02}
{"sequenceRecord": "ATCAAATATG", "switch fluorescence ratio": 1.01}
{"sequenceRecord": "TGTTTTGGGA", "switch fluorescence ratio": 0.997}
{"sequenceRecord": "CGGTTTCTCG", "switch fluorescence ratio": 0.982}
{"sequenceRecord": "ACGGGTGGCA", "switch fluorescence ratio": 0.986}
{"sequenceRecord": "CCGGAGTGGA", "switch fluorescence ratio": 2.56}
{"sequenceRecord": "TTGTTTAATC", "switch fluorescence ratio": 1.04}
{"sequenceRecord": "AGGGAGTTAA", "switch fluorescence ratio": 0.973}
{"sequenceRecord": "GAGTAGTATA", "switch fluorescence ratio": 0.992}
{"sequenceRecord": "GGGTATGTTG", "switch fluorescence ratio": 0.978}
{"sequenceRecord": "TAGGGTTAAG", "switch fluorescence ratio": 0.999}
{"sequenceRecord": "TCCCCTCGGC", "switch fluorescence ratio": 1.08}
{"sequenceRecord": "TAAGGTAGG", "switch fluorescence ratio": 0.967}
{"sequenceRecord": "GCGATCCAAA", "switch fluorescence ratio": 1}
{"sequenceRecord": "TTTACGCGTC", "switch fluorescence ratio": 1.16}
{"sequenceRecord": "TTAATACTTG", "switch fluorescence ratio": 1.03}
{"sequenceRecord": "TCTGTGGCCC", "switch fluorescence ratio": 1.01}
{"sequenceRecord": "CCAGGAGTAG", "switch fluorescence ratio": 1.03}
{"sequenceRecord": "AATGTTCAGG", "switch fluorescence ratio": 0.995}
{"sequenceRecord": "AGATCTTGTA", "switch fluorescence ratio": 0.991}
{"sequenceRecord": "CGTCATATTA", "switch fluorescence ratio": 1.01}
{"sequenceRecord": "GAGAATCACG", "switch fluorescence ratio": 0.996}
